Numbers sourced from patent US7314959B2.

Test system: primary, diploid fibroblasts isolated from human skin
test: Growth inhibition of primary diploid human skin fibroblasts
Format: cell-based
conditions.used: 50% inhibition of human skin fibroblast growth; Expt. 2; read-out: IC50 (uM), Expt. 2
attribute.measured: IC50 (µM)
Express it in µM; write the number only.

Examples with their reported IC50 follow.
compound.structure.string | attribute.measured | recorded.result
CCNCCCCNCCCCNC/C=C(/CS)CNCCCCNCCCCNCC | IC50 | 1090
CCNCCCCNCCCCNCCCCNCCCCNC/C=C(/CS)CNCCCCNCCCCNCCCCNCCCCNCC | IC50 | 0.24
CCNCCCCNC/C=C(/CS)CNCCCCNCC | IC50 | 240
CCNCCCCNCCCCNCC=C(CNC)CNCCCCNCCCCNCC | IC50 | 202
CCNCCCCNCCCCNCCCCNCCCCNCC=C(CNCC)CNCCCCNCCCCNCCCCNCCCCNCC | IC50 | 0.21
CCNCCCCNCC=C(CNCC)CNCCCCNCC | IC50 | 809

Now consider the entry below.
IN: Look at this molecule and give its reported IC50. CCNCCCCNCCCCNCC=C(CNCC)CNCCCCNCCCCNCC
OUT: 180

----------
System: 23SK skin cells
test: Flow cytometry cell cycle distribution
Type: cell-based, human
conditions.used: IC80 dose, G1
attribute.measured: Cell Cycle Distribution At IC80 Dose (%) G1
The answer is to be given in %; state only the numeric part.

compound | recorded.result
CCNCCCCNCCCCNCCCCNC/C=C(/CS)CNCCCCNCCCCNCCCCNCC [PrC-116] | 66
CCNCCCCNCCCCNCCCCNCCCCNC/C=C(/CS)CNCCCCNCCCCNCCCCNCCCCNCC [PrC-117] | 86
CCNCCCCNCCCCNCCCCNCCCCNCC=C(CNCC)CNCCCCNCCCCNCCCCNCCCCNCC [PrC-113] | 77
CCNCCCCNCCCCNCCCCNCC=C(CNCC)CNCCCCNCCCCNCCCCNCC [PrC-112] | 61
CCNCCCCNCC=C(CNCC)CNCCCCNCC [PrC-110] | 60

IN: Give its Cell Cycle Distribution At IC80 Dose (%) G1 value. Item: CCNCCCCNCCCCNCCCCNCC=C(CS)CNCCCCNCCCCNCCCCNCC [PrC-123]
OUT: 68

IN: Endpoint output: Cell Cycle Distribution At IC80 Dose (%) G1 of CCNCCCCNCCCCNCC=C(CNCC)CNCCCCNCCCCNCC [PrC-111] . Value?
OUT: 60

IN: Quick one: Cell Cycle Distribution At IC80 Dose (%) G1 for CN[C@H]1CCc2cc(OC)c(OC)c(OC)c2-c2ccc(OC)c(=O)cc21 [Colcemid, reference compound] ?
OUT: 8

----------
System: 23SK skin cells
test: Flow cytometry cell cycle distribution
Type: cell-based, human
conditions.used: IC80 dose, S
attribute.measured: Cell Cycle Distribution At IC80 Dose (%) S
Use % as the unit, but write only the number.

compound | recorded.result
CCNCCCCNCCCCNCCCCNCC=C(CS)CNCCCCNCCCCNCCCCNCC | 10
CN[C@H]1CCc2cc(OC)c(OC)c(OC)c2-c2ccc(OC)c(=O)cc21 [Colcemid, reference compound] | 11

IN: Tell me reported Cell Cycle Distribution At IC80 Dose (%) S for CCNCCCCNCCCCNCCCCNCCCCNC/C=C(/CS)CNCCCCNCCCCNCCCCNCCCCNCC , tested with 23SK skin cells.
OUT: 11
